System: zebrafish embryos
Assay: Death rates of treated zebrafish embryos
Type: in vivo, zebrafish (Danio rerio)
Details: 2 μM, eight embryos per well, control 0
Method: A transgenic zebrafish line, Tg(flk1:EGFP), with the endothelial- specific flk1 promoter directing enhanced green fluorescent protein (EGFP) expression in all endothelial cells of the vasculature was used. Adult zebrafish were maintained at 28.5 °C in a recirculating aquaculture system. […] Photographs were taken under a fluorescence microscope.
The following molecules are shown together with reported Death Rate values.
quantity_measured: Death Rate

molecule | test_value
CC(C)=CCc1c2c(c(O)c3c1O[C@]14C(=C[C@@H]5C[C@H]1C(C)(C)O[C@@]4(C/C=C(/C)C=O)C5=O)C3=O)C=CC(C)(C)O2 [Xanthone 5, morellin isomers] | 0
CC(C)=CCCC1(C)C=Cc2c(O)c3c(c(CC=C(C)C)c2O1)O[C@]12C(=C[C@@H]4C[C@H]1C(C)(C)O[C@@]2(C/C=C(\C)C(=O)O)C4=O)C3=O (stereo partly shown) | 0
CC(C)=CCc1c2c(c(O)c3c1O[C@]14C(=C[C@@H]5C[C@H]1C(C)(C)O[C@@]4(C/C=C(/C)C(=O)O)C5=O)C3=O)C=CC(C)(C)O2 | 0
CC(C)=CCC/C(C)=C/Cc1c(O)c(CC=C(C)C)c2c(c1O)C(=O)C1=C[C@@H]3C[C@H]4C(C)(C)O[C@@](CC=C(C)C)(C3=O)[C@@]14O2 | 0

----------
system: HUVEC cell line; assay: MTT assay, inhibition of proliferation of HUVEC cell line; format: cell-based; details: Homo sapiens, MTT assay, 50% inhibition of cell growth, read-out: IC50 HUVEC
pIC50: −log10 of the molar value.
Quick reference: pIC50 of the listed items.
quantity_measured: pIC50

compound | quantity_measured | test_value
CC(C)=CCCC1(C)C=Cc2c(O)c3c(c(CC=C(C)C)c2O1)O[C@]12C(=C[C@@H]4C[C@H]1C(C)(C)O[C@@]2(C/C=C(\C)C(=O)O)C4=O)C3=O (stereo partly drawn) | pIC50 | 6.04
CC(C)=CCC[C@]1(C)C=Cc2c(O)c3c(c(CC=C(C)C)c2O1)O[C@]12C(=C[C@@H]4C[C@H]1C(C)(C)O[C@@]2(C/C=C(/C)C(=O)O)C4=O)C3=O | pIC50 | 6.14
CC(C)=CCc1c2c(c(O)c3c1O[C@]14C(=C[C@@H]5C[C@H]1C(C)(C)O[C@@]4(C/C=C(/C)C=O)C5=O)C3=O)C=CC(C)(C)O2 [Xanthone 5, morellin isomers] | pIC50 | 5.62
CC(C)=CCC/C(C)=C/Cc1c(O)c(CC=C(C)C)c2c(c1O)C(=O)C1=C[C@@H]3C[C@H]4C(C)(C)O[C@@](C/C=C(\C)C=O)(C3=O)[C@@]14O2 | pIC50 | 5.67
CC(C)=CCC/C(C)=C/Cc1c(O)c(CC=C(C)C)c2c(c1O)C(=O)C1=C[C@@H]3C[C@H]4C(C)(C)O[C@@](C/C=C(/C)C=O)(C3=O)[C@@]14O2 | pIC50 | 5.98
CC(C)=CCC/C(C)=C/Cc1c(O)c(CC=C(C)C)c2c(c1O)C(=O)C1=C[C@@H]3C[C@H]4C(C)(C)O[C@@](C/C=C(/C)C(=O)O)(C3=O)[C@@]14O2 | pIC50 | 5.39

----------
Consider the following compounds and their measured Heart Rate readings.
system: zebrafish embryos; experiment: Heart rates of treated zebrafish embryos; format: in vivo, zebrafish (Danio rerio); conditions: Tg(flk1:EGFP), zebrafish, in vivo, 24 h, 2 μM

compound | unit | Heart Rate
CC(C)=CCc1c2c(c(O)c3c1O[C@]14C(=C[C@@H]5C[C@H]1C(C)(C)O[C@@]4(C/C=C(/C)C=O)C5=O)C3=O)C=CC(C)(C)O2 [Xanthone 5, morellin isomers] | per 10 s | 13
CC(C)=CCC/C(C)=C/Cc1c(O)c2c(c3c1O[C@@H](C(C)(C)O)C3)O[C@]13C(=C[C@@H]4C[C@H]1C(C)(C)O[C@@]3(C/C=C(/C)C(=O)O)C4=O)C2=O | per 10 s | 21
CC(C)=CCCC1(C)C=Cc2c(O)c3c(c(CC=C(C)C)c2O1)O[C@]12C(=C[C@@H]4C[C@H]1C(C)(C)O[C@@]2(C/C=C(\C)C(=O)O)C4=O)C3=O (stereo partly shown) | per 10 s | 17
CC(C)=CCC[C@]1(C)C=Cc2c(O)c3c(c(CC=C(C)C)c2O1)O[C@]12C(=C[C@@H]4C[C@H]1C(C)(C)O[C@@]2(C/C=C(/C)C(=O)O)C4=O)C3=O | per 10 s | 3

----------
IC50: recorded values
Tested on: HeLa
Assay: MTT cytotoxicity assay, HeLa
Format: cell-based
Conditions: Homo sapiens, read-out: IC50 HeLa
Description: The xanthones 1–11 were tested for cytotoxicity against HeLa, A549, HCT-116, and HepG-2 human cancer cell lines and inhibition on the proliferation of the HUVEC cell line by using the MTT assay according to the described protocols.
quantity_measured: IC50 (nM)

molecule | quantity_measured | unit | test_value
CC(C)=CCc1c2c(c(O)c3c1O[C@]14C(=C[C@@H]5C[C@H]1C(C)(C)O[C@@]4(CC=C(C)C)C5=O)C3=O)C=CC(C)(C)O2 [Xanthone 10, desoxymorellin] | IC50 | nM | 2600
CC(C)=CCC/C(C)=C/Cc1c(O)c(CC=C(C)C)c2c(c1O)C(=O)C1=C[C@@H]3C[C@H]4C(C)(C)O[C@@](CC=C(C)C)(C3=O)[C@@]14O2 [Xanthone 11, desoxygambogenin] | IC50 | nM | 2950
CC(C)=CCc1c2c(c(O)c3c1O[C@]14C(=C[C@@H]5C[C@H]1C(C)(C)O[C@@]4(C/C=C(/C)C(=O)O)C5=O)C3=O)C=CC(C)(C)O2 [Xanthone 3, morellic acid] | IC50 | nM | 13800

----------
system: HCT-116; assay: MTT cytotoxicity assay, HCT-116; type: cell-based; conditions: Homo sapiens, HCT-116, read-out: IC50 HCT-116

line_notation | target_entity | IC50 / µM
CC(C)=CCc1c2c(c(O)c3c1O[C@]14C(=C[C@@H]5C[C@H]1C(C)(C)O[C@@]4(C/C=C(/C)C(=O)O)C5=O)C3=O)C=CC(C)(C)O2 | HCT-116 | 8.89
CC(C)=CCc1c2c(c(O)c3c1O[C@]14C(=C[C@@H]5C[C@H]1C(C)(C)O[C@@]4(CC=C(C)C)C5=O)C3=O)C=CC(C)(C)O2 | HCT-116 | 1.2
CC(C)=CCC/C(C)=C/Cc1c(O)c(CC=C(C)C)c2c(c1O)C(=O)C1=C[C@@H]3C[C@H]4C(C)(C)O[C@@](CC=C(C)C)(C3=O)[C@@]14O2 | HCT-116 | 1.35

----------
test system: zebrafish embryos; experiment: Heart rates of treated zebrafish embryos; assay type: in vivo, zebrafish (Danio rerio); conditions: Tg(flk1:EGFP), zebrafish, in vivo, 24 h, 8 μM

molecule | target_entity | Heart Rate [per 10 s]
CC(C)=CCC/C(C)=C/Cc1c(O)c(CC=C(C)C)c2c(c1O)C(=O)C1=C[C@@H]3C[C@H]4C(C)(C)O[C@@](C/C=C(/C)C=O)(C3=O)[C@@]14O2 | zebrafish embryos | 6
CC(C)=CCc1c2c(c(O)c3c1O[C@]14C(=C[C@@H]5C[C@H]1C(C)(C)O[C@@]4(C/C=C(/C)C=O)C5=O)C3=O)C=CC(C)(C)O2 [Xanthone 5, morellin isomers] | zebrafish embryos | 8
CC(C)=CCC/C(C)=C/Cc1c(O)c2c(c3c1O[C@@H](C(C)(C)O)C3)O[C@]13C(=C[C@@H]4C[C@H]1C(C)(C)O[C@@]3(C/C=C(/C)C(=O)O)C4=O)C2=O | zebrafish embryos | 13
CC(C)=CCCC1(C)C=Cc2c(O)c3c(c(CC=C(C)C)c2O1)O[C@]12C(=C[C@@H]4C[C@H]1C(C)(C)O[C@@]2(C/C=C(\C)C(=O)O)C4=O)C3=O (some centres unmarked) | zebrafish embryos | 6
CC(C)=CCC/C(C)=C/Cc1c(O)c(CC=C(C)C)c2c(c1O)C(=O)C1=C[C@@H]3C[C@H]4C(C)(C)O[C@@](C/C=C(\C)C=O)(C3=O)[C@@]14O2 | zebrafish embryos | 17

----------
system: zebrafish embryos; test: Heart rates of treated zebrafish embryos; assay type: in vivo, zebrafish (Danio rerio); conditions: 4 μM, zebrafish embryos; control 21 per 10 s
Mark Y for reported Heart Rate of 5 per 10 s or greater; mark N for anything smaller.

line_notation | assigned_class
CC(C)=CCC/C(C)=C/Cc1c(O)c(CC=C(C)C)c2c(c1O)C(=O)C1=C[C@@H]3C[C@H]4C(C)(C)O[C@@](CC=C(C)C)(C3=O)[C@@]14O2 | Y
CC(C)=CCc1c2c(c(O)c3c1O[C@]14C(=C[C@@H]5C[C@H]1C(C)(C)O[C@@]4(CC=C(C)C)C5=O)C3=O)C=CC(C)(C)O2 | Y
CC(C)=CCC/C(C)=C/Cc1c(O)c(CC=C(C)C)c2c(c1O)C(=O)C1=C[C@@H]3C[C@H]4C(C)(C)O[C@@](C/C=C(/C)C(=O)O)(C3=O)[C@@]14O2 | N
CC(C)=CCc1c2c(c(O)c3c1O[C@]14C(=C[C@@H]5C[C@H]1C(C)(C)O[C@@]4(C/C=C(/C)C(=O)O)C5=O)C3=O)C=CC(C)(C)O2 | Y
